Source: ChEMBL document CHEMBL3045776

- Test system: Staphylococcus aureus
- ASSAY_PROTOCOL: Antibacterial activity against Staphylococcus aureus at 500 ug/disk after 24 hr by disk diffusion method
- Assay type: functional
- CONDITION_DETAILS: read-out: IZ

GIVEN_SMILES: Cc1ccc2nc(Sc3nnc(-c4cccs4)n3-c3ccccc3)c3nnc(N)n3c2c1
ASSAYED_SYSTEM: Staphylococcus aureus
VALUE_UNITS: mm
zone of inhibition at 500 µg/disc: 15
--
GIVEN_SMILES: CCNC(=S)Nc1nnc2c(Cl)nc3ccc(C)cc3n12
ASSAYED_SYSTEM: Staphylococcus aureus
VALUE_UNITS: mm
zone of inhibition at 500 µg/disc: 15
--
GIVEN_SMILES: CCOC(=O)c1cnc2n(nc3c(Cl)nc4ccc(C)cc4n32)c1=O
ASSAYED_SYSTEM: Staphylococcus aureus
VALUE_UNITS: mm
zone of inhibition at 500 µg/disc: 10
--
GIVEN_SMILES: CC(=O)c1ccc(Nc2nc3ccc(C)cc3n3c(NC(=O)c4ccccc4)nnc23)cc1
ASSAYED_SYSTEM: Staphylococcus aureus
VALUE_UNITS: mm
zone of inhibition at 500 µg/disc: 15
--
GIVEN_SMILES: COc1ccc(/C=N/c2n[nH]c(Sc3nc4ccc(C)cc4n4c(N)nnc34)n2)cc1OC
ASSAYED_SYSTEM: Staphylococcus aureus
VALUE_UNITS: mm
zone of inhibition at 500 µg/disc: 10
--
GIVEN_SMILES: Cc1ccc2nc(N3CCCCC3)c3nnc(NC(=O)c4ccccc4)n3c2c1
ASSAYED_SYSTEM: Staphylococcus aureus
VALUE_UNITS: mm
zone of inhibition at 500 µg/disc: 20
